Ki reference
- target of assay: Cannabinoid receptor 2 (Homo sapiens)
- procedure details: Binding affinity to CB2 receptor
value kind: Ki (nM)

- C[C@H](N)c1ccc(S(=O)(=O)c2ccc(Cl)cc2S(=O)(=O)c2ccccc2F)cc1: 3950
- CNS(=O)(=O)c1cc(Cl)ccc1S(=O)(=O)c1ccc([C@H](C)NS(C)(=O)=O)cc1: 1250
- C[C@H](NS(=O)(=O)C(F)(F)F)c1ccc(S(=O)(=O)c2ccccc2S(=O)(=O)c2ccccc2F)cc1: 25
- C[C@H](NS(C)(=O)=O)c1ccc(S(=O)(=O)c2ccc(Cl)cc2S(=O)(=O)c2ccccc2F)cc1: 1.3
- C[C@H](NS(=O)(=O)C(F)(F)F)c1ccc(S(=O)(=O)c2ccc(O)cc2S(=O)(=O)c2ccccc2F)cc1: 1.3
- C[C@H](NS(=O)(=O)C(F)(F)F)c1ccc(S(=O)(=O)c2ccc(OC(F)(F)F)cc2S(=O)(=O)c2ccccc2F)cc1: 5
- C[C@H](NS(C)(=O)=O)c1ccc(S(=O)(=O)c2ccc(Cl)cc2S(=O)(=O)N(C)C)cc1: 1270
- C[C@H](NS(=O)(=O)C(F)(F)F)c1ccc(S(=O)(=O)c2ccc(C(F)(F)F)cc2S(=O)(=O)c2ccccc2F)cc1: 2.5
